# Experimental system: HNF-1A DD-DBD N266S (Homo sapiens, UniProt P20823 1-279, N266S)
# Sequence (P20823 1-279 N266S): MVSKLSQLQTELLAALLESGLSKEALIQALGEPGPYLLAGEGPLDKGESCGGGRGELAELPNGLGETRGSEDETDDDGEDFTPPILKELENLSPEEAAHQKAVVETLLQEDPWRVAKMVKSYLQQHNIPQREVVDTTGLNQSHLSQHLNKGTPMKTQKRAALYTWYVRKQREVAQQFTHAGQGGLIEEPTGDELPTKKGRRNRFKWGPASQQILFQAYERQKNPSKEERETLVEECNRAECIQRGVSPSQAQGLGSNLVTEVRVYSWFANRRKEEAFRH
# Test protocol: ITC
Value kind: pKd
# log scale: pKd equals minus log10 of the concentration in mol/L

Ask | // query pKd value for entry RA (rat albumin promoter oligonucleotide), unlabeled (dsDNA) DNA 1: CTTGGTTAATAATTCACCAGA DNA 2: TCTGGTGAATTATTAACCAAG
Reply | 6.13

All figures here come from paper PMC8988010.
